- Tested on: SNU-1
- PROTOCOL: COMPOUND A In Vitro Assay
- Assay type: cell-based
- EXPERIMENTAL_CONTEXT: Homo sapiens, SNU1, SNU-1; Stomach; TP53 Wild type
ENDPOINT_LABEL: IC50 (nM)
Numbers only; they are read as nM.

**Q:** Entry CCOc1cc(C(C)(C)C)ccc1C1=N[C@@](C)(c2ccc(Cl)cc2)[C@@](C)(c2ccc(Cl)cc2)N1C(=O)N1CCN(CCCS(C)(=O)=O)CC1 [COMPOUND A] has what IC50?
**A:** 370

---

- Test system: SW403
- PROTOCOL: COMPOUND A In Vitro Assay
- Format: cell-based
- EXPERIMENTAL_CONTEXT: Homo sapiens, SW-403, Intestine, large, colon, TP53 Mutant
ENDPOINT_LABEL: pIC50
// scale note: pIC50 = -log10(conc_M); give the bare number

**Q:** Entry CCOc1cc(C(C)(C)C)ccc1C1=N[C@@](C)(c2ccc(Cl)cc2)[C@@](C)(c2ccc(Cl)cc2)N1C(=O)N1CCN(CCCS(C)(=O)=O)CC1 has what pIC50?
**A:** 5.22
